B1: TPR t1 (parent)
chain: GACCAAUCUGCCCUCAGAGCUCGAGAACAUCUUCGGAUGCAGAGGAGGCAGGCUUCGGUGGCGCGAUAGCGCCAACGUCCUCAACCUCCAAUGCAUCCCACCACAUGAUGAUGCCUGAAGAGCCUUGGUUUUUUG

Variants of: B1
assay: polymerase ribozyme fitness, log enrichment relative to wild type (log ratio); higher = more active; in vitro selection for triplet polymerase activity
Please use 1 whenever polymerase ribozyme fitness (log ratio) is not below -4, and 0 whenever it is.

- GACCAAUCUCCCAUCAGAGCUCGAGAACAUCUUCGGAUGCAGAGGAGGCAGGCUUCGAUGGCGCGAUAGCACCAACGUCCUCAACCUCCAAUGCAUCUCACCACAUGAUGAUGCCUGAAGAGCCUUGGUUUUUUG: 1
- GACCAAUCUGCCCUCAGAGCUCGAGAACAUCUUCGAAUGCAGAAGAGGCAGGCUUCGGUGGCGCGAUAGCGCGAACGUUCUCAACCUCCAAUGCAUCCCACCACAUGAUGAUGCCGGAAGAGCCUUGGUUUUUUG: 0
- GAGCAAUCUGCCCUCAGAGCUCGAGAACAUCUUCGGAUGCAGAGGAGGCAGGCUUAGGUGGCGCGAUAGCGCCAACGUCCUCAACGUCCAAUGCAUCCCACCAAAUGAUGAUGCCUGAAGAGCCUUGGUUUUUUG: 0
- GACCAAUCUGCCCUCAGAGCUCGAGAACAUCUUCGGAUGCAGAGGAGGCAGGCUUCGGUGGCGCGAUAGCGCCAACGUCCUCAACCUCCAAUACAUCCCACCACAUGAUGAUGACUGCAGAGCCUUGGUUUUUUG: 1
- GACCAAUCUGCCCUCAGAGCUCGAGAACAUCUUCGGUUGCAGAGGAGGCAGGCUUCGGUGGCGCGAUAGGGCCAACGUCCUCAACCUCCAAUGCAUUCCACCACAUGAUGAUGCCUUAAGAGCCUUGGUUUUUUG: 0

// inclusive: polymerase ribozyme fitness (log ratio) at least -4? input: GACCAAUCUGCCCUCAGAGCUCGAGAACAUCUUCGGAUGCAGAGGAGGCAGGCUUCGGUGGCGCGAUAGCGCCAACGGCCUCAACCUCCAAUGCAUCCCACCACAUGAUGAUGUCUGAAGAGCCUUGGUUUUUUG
1

// inclusive: polymerase ribozyme fitness (log ratio) at least -4? input: GACCAAUCUUCCCUCAGAGCUCGAGAACAUCUUCGGAUGCAGAGGAGGCAGGCUUUGGUGGCGCGAUAGCGCCAACGUCCUCAACCUCCAAUGCAUCCCACCACAUGAUGAUGCCAGAAGAGCCUUGGUUUUUUG
1

// inclusive: polymerase ribozyme fitness (log ratio) at least -4? input: GACCAAUCUGCCCUCAGAGCUCGAGAACAUCUUCGGAUACAGAGGAGGCAGGCUUCGGUGGCGCGAUAGCGCCAACGUCCUCAACCUCCAAUACAUCCCACCACAUGAUGAGGCCUGAAGAGACUUGGUUUUUUG
1

// inclusive: polymerase ribozyme fitness (log ratio) at least -4? input: GACCAAUCUGCUCUCAGAGCUCGAGAACAUCUUCGGAUGCAGAGGAGGCAGGCAUAGGUGGCGCGAUAGCGCCAACGUCCUCAACCUCCACUGCAUCCCACCACAUGAUGAUGCUUGAAGAGCCUUGGUUUUUUG
1

// inclusive: polymerase ribozyme fitness (log ratio) at least -4? input: GACCUUUCUGCCCUCAGAGCUCGAGAACAUCUUCGGAUGCAGAGGAGGCAGGCUUCGGUGGGGCGAUAGCGCCAACGUCCUCAACCUCCAAUGCAUCCCACCAUAUGAUGAUGCCUGAAGAGCCUUGGUUUUUUG
1

// inclusive: polymerase ribozyme fitness (log ratio) at least -4? input: GACCAAUCUGCCCUCAGAGCUCGAGAACAUCUUCGGAUGCAGAGGAGGCAGGCUUCGGUGGCGCGAUAGCGCCAAUGUCCUCAACCUCCAAUGCAUCCCACCACAUGAUCAUGCCUGAAGAGCCUUGGUUUUUUG
0

// inclusive: polymerase ribozyme fitness (log ratio) at least -4? input: GACCAAUCUGCCCUCAGAGCUCGAGAACAUCUUCGGAUGCAGAGGAAGCAAGCUUCGGUGGCGCGAUAGCGCCAACGUCCUCAACCUCCAAUGCAUCCCACCACAUGAUGAUGCCUGAAGAGCCUUGGUUUUUUG
0

// inclusive: polymerase ribozyme fitness (log ratio) at least -4? input: GACCAAUCUGCCCUCAGAGCUCGAGAACAUCUUCGGAUGCAGAGGAGGCAGGCUUCGGUGGCGCGAUAGCGCCAACGUCCUCAACCUCCAAUGCAUCCCACCACAUGAUGAAGCCUGAAGAGCCUUAGUUUUUUG
1

// inclusive: polymerase ribozyme fitness (log ratio) at least -4? input: GACCAAUCUGCCCUCAGAGCUCGAGAACAUCUUCGGAUGCAGAGGAGGGAGGCUUCGGUGGCGCGAUAGCGCCAACGUCCUCAACCUCCAAUGCAUCCCACCACAUGAUGAUGCCUGAAGAGCCUUGGCUUUUUG
1

// inclusive: polymerase ribozyme fitness (log ratio) at least -4? input: GACCAAUCUGCCCUCAGAGCUCGAGAACAUCUUCGGAUGCAGAGCAGGCAGGCUUCGGUGGCGCGAUAGCGCCAACGUACUCAACCUCCAAUGCAUCCCACCACAUGAUGAUGCCUGAAGGGCCUUGGUUUUUUG
1

// inclusive: polymerase ribozyme fitness (log ratio) at least -4? input: GACCAAUCUGCCCUCAGAGCUCGAGAACAUCUUCGGAUGCGGAGGAGGCAGGCUUCGGUGGCGCGAUAGCGCCAACGUCCUCAACCUCCAAUGCAUCCCACCACAUGAUGCUGCCUGAAGAGCCUUGGUUUUUUG
1

// inclusive: polymerase ribozyme fitness (log ratio) at least -4? input: GACCAAUCUGCCCUCAGAGCUUGAGAACAUCUUCGGAUGCAGAGGAGGCAGGCUUCGGUGGCGCGAUAGCGGCAACGUCCUCAACCUCCAAUGCAUCCCACCACAUGAUGAUGCCUGAAGAGCCUUGGUUUUUUG
0

// inclusive: polymerase ribozyme fitness (log ratio) at least -4? input: GACCAAUCUGCCCUCAGAGCUCGAGAACAUCUUCGGAUGCAGAGGAGGCAGGCUUCGGUGGCGCGAUAGCGCCAACGUCCUCACCCUCCAAUGCAUCCCACCACAUGAUGAUGCCUGAAGAGCCUUGGUUUUUUG
1

// inclusive: polymerase ribozyme fitness (log ratio) at least -4? input: GACCAAUCUGCCCUCAGAGCUCGAGAACAUCUUCGGUUGCAGAGGAGGCAGGCUUGGGUGGCGCGAUAGCGCCAACGUCCUCAACCUCCAAUGCAUCCCACCACAUGAUGAUGCCUGAAGAGCCUUGGUUUUUUG
1

// inclusive: polymerase ribozyme fitness (log ratio) at least -4? input: GACCAAUGUGCUCUCAGAGCGCGAGAACAUCUUCGGAUCCAGAGGAGGCAGGCUUCGGUGGCGCGAUAGCGCCAACGUCCUCAACCUCCAAUGCAUCCCACCACAUGAUGAUGCCUGAAGAGCCUUGGUUUUUUG
1

// inclusive: polymerase ribozyme fitness (log ratio) at least -4? input: GACCAAUCUGCGCUCAGACCUCGAGAACAUCUUCGGAUGCAGAGGAGGCAGGCUUCGGUGGCGCGAUAGCGCCAACGUCCUCAACCUCCAAUGCAUCCCACCACAUGAUGAUGCCUGAAGAGCCUUGGUUUUUUG
1

// inclusive: polymerase ribozyme fitness (log ratio) at least -4? input: GACCAAUCUGCCCUCAGAGCUCGAGAACAUCUUCGGAUGCAGAGGAGGCAGGCGUCGGUGGCGCGAUAGCGCCAACGUCCUCAACCUCCAAUGCAUCCCAGCACAUGAUGAUGCGAGAAGAGCCUUGGUUUUUUG
0

// inclusive: polymerase ribozyme fitness (log ratio) at least -4? input: GACCAAUCUGCCUUCAGAGCUCGAGAACAUCUUCGGAUGCAGAGGAGGCAGGCUUCGGUGGCGUGAUAGCGCCAACGUCCUCAACCUCCAAUGCAUCCCACCACAUGAUGAUGCCUGAAGAGCCUUGGUUUUUUG
1

// inclusive: polymerase ribozyme fitness (log ratio) at least -4? input: GACCAAUCUGCCCUCAGAGCUCGAGAACAUCUUCGGAUGCAGAGGAGGCAGGCGUCGGUUGCGCGAUAGCGCCAACGUCCUCAACCUCCAAUGCAUCCCACCACAUGAUGAUGCCUGAAGAGCCUUGGUUUUUUG
1
